- Study system: human TRPV1 receptor (hTRPV1) (Homo sapiens (Human))
- Sequence (Q8NER1 whole entry): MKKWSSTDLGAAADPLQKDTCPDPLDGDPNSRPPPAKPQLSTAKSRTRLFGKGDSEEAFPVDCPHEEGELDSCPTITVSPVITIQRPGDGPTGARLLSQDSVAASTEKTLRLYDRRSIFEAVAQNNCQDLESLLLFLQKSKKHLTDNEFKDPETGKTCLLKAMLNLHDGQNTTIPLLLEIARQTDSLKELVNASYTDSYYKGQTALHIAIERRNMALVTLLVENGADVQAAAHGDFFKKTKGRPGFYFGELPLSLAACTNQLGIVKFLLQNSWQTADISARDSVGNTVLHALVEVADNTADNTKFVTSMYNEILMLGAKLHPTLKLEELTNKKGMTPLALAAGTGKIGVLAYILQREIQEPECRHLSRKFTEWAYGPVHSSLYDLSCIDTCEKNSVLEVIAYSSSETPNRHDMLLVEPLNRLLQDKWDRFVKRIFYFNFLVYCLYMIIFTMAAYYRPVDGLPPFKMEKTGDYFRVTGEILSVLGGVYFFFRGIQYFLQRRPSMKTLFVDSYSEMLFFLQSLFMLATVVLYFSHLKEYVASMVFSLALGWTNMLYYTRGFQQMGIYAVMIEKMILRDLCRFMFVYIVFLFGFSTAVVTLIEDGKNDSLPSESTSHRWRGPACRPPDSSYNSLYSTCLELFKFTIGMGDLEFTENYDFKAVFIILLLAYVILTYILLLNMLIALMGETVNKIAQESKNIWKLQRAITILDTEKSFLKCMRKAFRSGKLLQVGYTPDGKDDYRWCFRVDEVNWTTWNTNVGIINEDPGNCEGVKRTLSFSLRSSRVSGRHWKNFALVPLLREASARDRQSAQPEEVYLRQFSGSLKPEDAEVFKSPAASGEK
- Experiment notes: Acid activation assay (pH 5.0, FLIPR intracellular Ca2+)
- Format: cell-based
- Conditions: Table 1; 37.5 μM antagonist, percentage of the maximal pH 5.0-induced response remaining; read-out: hTRPV1 H+ (max % remain)
The following compounds are listed with their measured remaining activity at 37.5 µM values.
Experimental readout: remaining activity at 37.5 µM

> print(dat)
                                   compound                              study.system  result.value
1  Cc1cc2c(NC(=O)N[C@H]3CC[C@@H](c4ncc(C)o4)C3)c(F)ccc2cn1 (stereo in doubt)  human TRPV1 receptor (hTRPV1) (Homo sapiens (Human))           41%
2  O=C(Nc1cccc2c1CCCC2)N[C@@H]1CC[C@H](c2ccccc2)C1  human TRPV1 receptor (hTRPV1) (Homo sapiens (Human))            0%
3  Cc1cc2c(NC(=O)N[C@H]3CC[C@H](c4ccccc4)C3)c(F)ccc2cn1  human TRPV1 receptor (hTRPV1) (Homo sapiens (Human))           60%
4  CC(C)(C)c1ccc(C2CCCC(NC(=O)Nc3cccc4[nH]ncc34)C2)cc1 (centres unmarked)  human TRPV1 receptor (hTRPV1) (Homo sapiens (Human))           68%
5  O=C(Nc1cccc2c1C[C@H](O)CC2)N[C@@H]1CC[C@@H](c2ccccc2)C1 [Compound E, reference compound]  human TRPV1 receptor (hTRPV1) (Homo sapiens (Human))            1%
6  O=C(Nc1cccc2[nH]ncc12)N[C@H]1C[C@H](c2ccccc2)C1  human TRPV1 receptor (hTRPV1) (Homo sapiens (Human))            4%
7  O=C(Nc1ccc2c(c1)NC(=O)N(CCO)C2)N[C@@H]1CC[C@@H](c2cccc(F)c2)C1  human TRPV1 receptor (hTRPV1) (Homo sapiens (Human))           47%
8  O=C(Nc1cccc2c1CCC2)N[C@H]1CC[C@@H](c2ccccc2)C1  human TRPV1 receptor (hTRPV1) (Homo sapiens (Human))           50%

----------
- Study system: UniProt:Q8NER1
- Experiment notes: Acid activation assay (pH 5.0, FLIPR intracellular Ca2+)
- Format: cell-based
- Conditions: Table 1; 37.5 μM antagonist, percentage of the maximal pH 5.0-induced response remaining; read-out: hTRPV1 H+ (max % remain)
Experimental readout: remaining activity at 37.5 µM (%)

> print(dat)
                                    compound    study.system  result.value
 1  Cc1cc2c(NC(=O)N[C@H]3CC[C@@H](c4cccc(F)c4)C3)c(F)ccc2cn1  UniProt:Q8NER1            21
 2  O=C1CCc2ccc(NC(=O)N[C@H]3CC[C@@H](c4ccccc4)C3)cc2N1  UniProt:Q8NER1            65
 3  C[C@H]1Oc2c(NC(=O)N[C@@H]3CC[C@H](c4ccccc4)C3)cccc2NC1=O  UniProt:Q8NER1             2
 4  O=C(Nc1cccc2[nH]ncc12)N[C@@H]1CC[C@H](c2ccc(C(F)(F)F)cc2)C1  UniProt:Q8NER1             3
 5  CN1C(=O)CCc2c(NC(=O)N[C@H]3CC[C@@H](c4ccccc4)C3)cccc21  UniProt:Q8NER1            34
 6  O=C(Nc1cccc2c1C[C@@H](O)C2)N[C@H]1CC[C@@H](c2cccc(F)c2)C1  UniProt:Q8NER1            17
 7  Cc1cc2c(NC(=O)N[C@H]3CC[C@H](c4nc(C)cs4)C3)c(F)ccc2cn1  UniProt:Q8NER1            36
 8  O=C(Nc1cccc2c1C[C@H](O)C2)N[C@H]1CC[C@@H](c2ccccc2F)C1  UniProt:Q8NER1            55
 9  O=C(Nc1cccc2[nH]ncc12)N[C@H]1CCC[C@H](c2ccc(C(F)(F)F)cc2)C1  UniProt:Q8NER1            32
10  O=C(Nc1cccc2[nH]ncc12)N[C@@H]1C[C@H](c2ccccc2)[C@@H]2C[C@@H]21  UniProt:Q8NER1            11
11  O=C(Nc1cccc2c1C[C@@H](O)C2)N[C@@H]1CC[C@@H](c2ccccc2F)C1  UniProt:Q8NER1            16
12  CC(C)Cc1cc2c(NC(=O)N[C@@H]3CC[C@H](c4ccccc4)C3)c(F)ccc2cn1  UniProt:Q8NER1            89
13  O=C(Nc1cccc2[nH]ncc12)N[C@@H]1CC[C@@H](c2ccccc2)C1  UniProt:Q8NER1             8
14  O=C(Nc1cccc2c1C[C@H](O)C2)N[C@@H]1CC[C@@H](c2ccccc2F)C1  UniProt:Q8NER1            66
15  C[C@H]1Oc2c(NC(=O)N[C@H]3CC[C@H](c4ccccc4)C3)cccc2NC1=O  UniProt:Q8NER1             3
16  Cc1cc2c(NC(=O)N[C@@H]3CC[C@@H](c4nc(C)cs4)C3)c(F)ccc2cn1  UniProt:Q8NER1            16
17  Cc1cc2c(NC(=O)N[C@H]3CC[C@@H](c4nc(C)cs4)C3)c(F)ccc2cn1  UniProt:Q8NER1            57
18  O=C(Nc1cccc2[nH]ncc12)N[C@H]1CCC[C@@H](c2ccc(C(F)(F)F)cc2)C1  UniProt:Q8NER1            68
19  Cn1c(=O)ccc2c(NC(=O)N[C@@H]3CC[C@@H](c4ccccc4F)C3)cccc21  UniProt:Q8NER1            66
20  O=C(Nc1ccc2c(c1)NC(=O)C(N1CCCOCC1)C2)N[C@@H]1CC[C@H](c2ccccc2)C1 (some centres unmarked)  UniProt:Q8NER1            24
21  CN1C(=O)CCc2c(NC(=O)N[C@H]3CC[C@H](c4ccccc4)C3)cccc21  UniProt:Q8NER1            66
22  CN1C(=O)CCc2ccc(NC(=O)N[C@H]3CC[C@@H](c4cccc(F)c4)C3)cc21  UniProt:Q8NER1            88
23  Cc1cc2c(NC(=O)N[C@@H]3CC[C@H](c4ccccc4)C3)c(F)ccc2cn1  UniProt:Q8NER1            62
24  O=C(Nc1cccc2c1C[C@@H](O)C2)N[C@@H]1CC[C@H](c2ccccc2)C1  UniProt:Q8NER1            40
25  CN1C(=O)CCc2ccc(NC(=O)N[C@@H]3CC[C@@H](c4ccccc4F)C3)cc21  UniProt:Q8NER1            76
26  C[C@@]1(c2ccccc2)CC[C@@H](NC(=O)Nc2cccc3[nH]ncc23)C1  UniProt:Q8NER1            11
27  CN1C(=O)CCc2ccc(NC(=O)N[C@H]3CC[C@@H](c4ccccc4F)C3)cc21  UniProt:Q8NER1            72
28  Cc1cc2c(NC(=O)N[C@@H]3CC[C@H](c4ncc(C)o4)C3)c(F)ccc2cn1 (stereo in doubt)  UniProt:Q8NER1            54
29  O=C(Nc1ccc2c(c1)NCCO2)N[C@@H]1CC[C@H](c2ccccc2)C1  UniProt:Q8NER1            39
30  O=C(Nc1cccc2c1C[C@@H](O)CC2)N[C@H]1CC[C@H](c2ccccc2)C1 [Compound D, reference compound]  UniProt:Q8NER1             2
31  O=C(Nc1cccc2c1C[C@@H](O)CC2)N[C@@H]1CC[C@H](c2ccccc2)C1 [Compound C, reference compound]  UniProt:Q8NER1             2
32  Cc1cc2c(NC(=O)N[C@H]3CC[C@@H](c4ccccc4F)C3)c(F)ccc2cn1  UniProt:Q8NER1            48

----------
The following compounds are listed with their measured remaining activity at 37.5 µM values.
- Study system: UniProtKB Q8NER1
- Experiment notes: Acid activation assay (pH 5.0, FLIPR intracellular Ca2+)
- Assay type: cell-based
- Conditions: Table 2; 37.5 μM antagonist, percentage of the maximal pH 5.0-induced response remaining; read-out: hTRPV1 H+ (max % remain)
Experimental readout: remaining activity at 37.5 µM (%)

> print(dat)
                                    compound  result.value
 1  O=C(Nc1cccc2[nH]ncc12)N[C@@H]1CC[C@@H](c2ccccc2F)C1 [Example 66]            29
 2  Cn1ncc2c(NC(=O)N[C@@H]3CC[C@H](c4ccccc4)C3)cccc21 [Example 4]            21
 3  O=C(Nc1cccc2[nH]ncc12)N[C@H]1CC[C@@H](c2ccccc2)C1 [Example 28]            41
 4  Cc1cc2c(NC(=O)N[C@H]3CC[C@@H](c4ccccc4)C3)c(F)ccc2cn1 [Example 27]            60
 5  O=C(Nc1cccc2c1C[C@@H](O)C2)N[C@@H]1CC[C@H](c2ccccc2)C1 [Example 2]            40
 6  O=C(Nc1cccc2[nH]ncc12)N[C@@H]1CC[C@@H](c2ccccc2)C1 [Example 21]             8
 7  CC(C)(C)c1ccc(Nc2ncnc3cc(-c4ncccc4C(F)(F)F)ccc23)cc1 [I, reference compound]             1
 8  Cn1c(=O)ccc2c(NC(=O)N[C@@H]3CC[C@H](c4ccccc4)C3)cccc21 [Example 51]            56
 9  CN1C(=O)CCc2c(NC(=O)N[C@H]3CC[C@H](c4ccccc4)C3)cccc21 [Example 96]            66
10  Cc1nc(Nc2cccc3c2C[C@H](O)CC3)oc1-c1ccc(C(F)(F)F)cc1 [K, reference compound]             3
11  O=C(Nc1cccc2[nH]ncc12)N[C@@H]1C=C[C@H](c2ccccc2)C1 [Example 48]            49

Values were extracted from patent US8802711B2.
